The values you see were collected from PubChem BioAssay.

- Method Description: viability loss in pontine glioma line – cell-based, SU-DIPG-XXV, MIPE5.0, CellTiter-Glo, qHTS, dose response (AID 1347065);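 also: cells exposed to compound for 48 hours before ATP readout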
- Condition Details: CellTiter-Glo ATP luminescence
Inconclusive results are not listed. Activity calls are given as the source filed them. The limit is not given here; nearly all actives have AC50 up to about 26 µM.
Choose one outcome from this list and give only that: active, inactive

Reference set, count: 3
# Compound, Assigned Category
records = [
    ("O=C(NCCCNc1nc(Nc2cccc(NC(=O)N3CCCC3)c2)ncc1I)c1cccs1", "active"),
    ("COc1cc(N2CCC(N3CCN(C)CC3)CC2)ccc1Nc1ncnc(Nc2ccccc2S(=O)(=O)C(C)C)n1", "active"),
    ("CC(=O)c1ccc2c(c1)c1cc(C(C)=O)ccc1n2CCNC(C)C", "active"),
]

query: Hey, what did the test say about COc1ccc(-c2nc(N3CCOCC3)c3sc(CN(C)c4ncc(C(=O)NO)cn4)cc3n2)cn1 ?
result: active

query: Please indicate how the test categorized CC(C)NC[C@@H](C(=O)N1CCN(c2ncnc3c2[C@H](C)C[C@H]3O)CC1)c1ccc(Cl)cc1 .
result: active

query: Hey, what did the test say about C=CC(=O)N1CC/C(=C\c2ccc(F)c([N+](=O)[O-])c2)C(=O)/C(=C/c2ccc(F)c([N+](=O)[O-])c2)C1 ?
result: active

query: State the result this test recorded for CC1(C(=O)O)CCC2(C)CCC3(C)C(=CC(=O)C4C5(C)CCC(OC6OC(C(=O)O)C(O)C(O)C6OC6OC(C(=O)O)C(O)C(O)C6O)C(C)(C)C5CCC43C)C2C1 (stereo not drawn) .
result: inactive

query: // outcome(item) with item = C=CC(=O)Nc1cc(Nc2nccc(-c3cn(C)c4ccccc34)n2)c(OC)cc1N(C)CCN(C)C
result: active

----------
- Method Description: JHH-DIPG-1 glioma cell viability, MIPE5.0 library, CellTiter-Glo luminescence, qHTS (AID 1347067);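 also: cells exposed to compound for 48 hours before readout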
- Condition Details: JHH-DIPG-1 glioma viability, CellTiter-Glo ATP luminescence
Records with an inconclusive call do not appear. Active and inactive are the calls of the source. Cut-off not given; nearly all actives show AC50 up to about 26 µM.
Measurement Type: AC50

Look over these answered cases.
# Compound, Measurement Type, Result
records = [
    ("Cc1ccc2nc(NC(=O)CSc3nc4c(c(=O)n3-c3ccccc3)SCC4)sc2c1", "AC50", "inactive"),
    ("Cn1cc(-c2ccc3nnc(C(F)(F)c4ccc5ncccc5c4)n3n2)cn1", "AC50", "inactive"),
    ("Cc1nc(C)c(CN2CCN(C(c3ccc(F)cc3)c3ccc(F)cc3)CC2)nc1C", "AC50", "inactive"),
    ("CCCc1c(OCCCOc2ccc(OCC(=O)O)cc2)ccc(C(C)=O)c1O", "AC50", "inactive"),
    ("Cc1ccc(NC(=O)Nc2cc(C(F)(F)F)ccc2F)cc1Nc1ccc2c(c1)NC(=O)/C2=C\\c1ccc[nH]1", "AC50", "10.5 µM (active)"),
    ("COc1cc2c(cc1OC)CC(=O)N(CCCN(C)C[C@H]1Cc3cc(OC)c(OC)cc31)CC2", "AC50", "inactive"),
    ("COC1CCC(N(C(=O)C2CCC(C)CC2)c2cc(C3=CCCCC3)sc2C(=O)O)CC1 (centres undefined)", "AC50", "inactive"),
    ("C[C@H](Nc1nc(N[C@H](C)C(F)(F)F)nc(-c2cccc(Cl)n2)n1)C(F)(F)F", "AC50", "inactive"),
]

query: Identify measured AC50 associated with O=C(O)c1ccc2c(c1)nc(Nc1cccc(Cl)c1)c1ccncc12
result: 2.95 µM (active)

----------
# key: entry, value: fold change
- Method Description: viability loss with induced miR-34 in A549 – imaging, A549 dox-inducible miR-34, nuclei and caspase counts, primary screen (AID 1347080)
- Condition Details: A549 miR-34 inducible, Hoechst nuclei count, 48 h; measured here: relative caspase fold change +Dox/-Dox
Keep the answer to the number alone.

# Compound, fold change
data = [
    ("CN(C)CCC1(c2ccc(Cl)cc2)Cc2ccccc2C(=O)O1 (stereo not given)", 1.4),
    ("Cc1ccc(S(=O)(=O)Nc2nc3ccccc3nc2Nc2ccc3nsnc3c2)cc1", 1.38),
    ("CCCC[P+](CCCC)(CCCC)Cc1ccc(NC(=O)[C@@H](Cc2ccc3ccccc3c2)NC(=NC2CCCCC2)NC2CCCCC2)cc1", 1.13),
    ("Cn1c(N2CCCCS2(=O)=O)nc(C(=O)NCc2ccc(F)cc2)c(O)c1=O", 0.973),
    ("CC#CCOC(=O)C1=CCCN(C)C1", 0.732),
    ("CCCCC[C@@](C)(O)/C=C/[C@@H]1C(C/C=C\\CCCC(=O)O)[C@@H](O)C[C@H]1O (stereo not given in full)", 1.76),
    ("CC(C)CCCCCCC/C=C/C(=O)O", 0.582),
    ("CCNC(=O)CCC/C=C\\C[C@@H]1[C@@H](CC[C@@H](O)CCc2ccccc2)[C@H](O)C[C@@H]1O", 1.65),
    ("NC(C(=O)O)c1ccc(C(=O)O)c(O)c1 (stereo not given)", 1.12),
]

query: Respond only with fold change recorded for Cc1cc(OCc2nnc(SC3CCCC3)n2-c2cccnc2)ccc1-c1ccc(S(C)(=O)=O)cc1
result: 0.499

----------
- Method Description: viability loss with induced miR-34 in A549 – imaging, A549 dox-inducible miR-34, nuclei and caspase counts, primary screen (AID 1347080)
- Condition Details: A549 miR-34 inducible, Hoechst nuclei count, 48 h; measured here: total cells with miR-34 induction; stronger effect = lower value
Measurement Type: cell count
The answer should be a number; do not append a unit.

Completed entries (count: 10):
# Compound, cell count
records = [
    ("Oc1ccc(-c2c(-c3ccccc3)nn3c(C(F)(F)F)cc(C(F)(F)F)nc23)cc1", 8170),
    ("CCCc1c(OCCCOc2ccc(OCC(=O)O)cc2)ccc(CC=O)c1O", 9560),
    ("Clc1ccc(C2(c3ccc(-c4cn[nH]c4)cc3)CCNCC2)cc1", 2520),
    ("O=C(O)CCC/C=C\\C[C@@H]1[C@@H](/C=C/[C@@H](O)Cc2ccccc2)[C@H](O)C[C@@H]1O", 6070),
    ("CCCCCCCCCCCCCCOc1ccc(C(=O)O)o1", 5650),
    ("Cc1ccc(Sc2ccccc2N2CCNCC2)c(C)c1", 4800),
    ("Cc1c(C(=O)NN2CCOCC2)nn(-c2ccc(Cl)cc2Cl)c1-c1ccc(I)cc1", 8280),
    ("N#CCNC(=O)c1ccc(-c2ccnc(Nc3ccc(N4CCOCC4)cc3)n2)cc1", 1150),
    ("CC(CN1CCC(n2c(=O)[nH]c3cc(Cl)ccc32)CC1)NC(=O)c1ccc2ccccc2c1 (stereo not drawn)", 5810),
    ("COc1ccc(CC(=O)NC(/N=C(\\NC#N)Nc2cccc3ncccc23)C(C)(C)C)cc1OC (stereo not drawn)", 9530),
]

query: # return recorded cell count for entry CN(C)CCN1C(=O)c2cccc3cc(N)cc(c23)C1=O
result: 1750

query: Given CCN(C(=O)c1c(O)c2c(Cl)cccc2n(C)c1=O)c1ccccc1 , respond with its cell count.
result: 8690

query: Entry CCCC/C=C\CCCCCCCC(=O)OC needs its cell count filled in; supply it.
result: 5700

----------
- Method Description: growth inhibition of DIPG cells – cell-based, MIPE5.0 library, qHTS (AID 1347068);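 as to IC50: cells exposed to compound for 48 hours before viability readout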
- Condition Details: SU-DIPG-XXV viability
Inconclusive results are not listed. Calls of active or inactive are those of the source. No cut-off is given here; in the data, nearly all actives have IC50 up to about 30 µM.
Could you please pick one outcome from this set? 1 = active, 0 = inactive

Known results for compounds:
# Compound, Assigned Category
rows = [
    ("CN(C(Cc1ccc(OS(=O)(=O)c2cccc3cnccc23)cc1)C(=O)N1CCN(c2ccccc2)CC1)S(=O)(=O)c1cccc2cnccc12 (centres undefined)", 0),
    ("O=C(O)c1cc(O)c2c(c1)C(=O)c1cccc(O)c1C2=O", 0),
    ("C[C@H](O)[C@@H]1C(=O)N2C(C(=O)O)=C(S[C@@H]3CN[C@H](CNS(N)(=O)=O)C3)[C@@H](C)[C@@H]12", 0),
    ("Cn1c(=O)c(F)c(Nc2ccc(I)cc2F)c2c(=O)n(C[C@@H](O)CO)cnc21", 1),
    ("Cn1cc(-c2ccc(S(=O)(=O)n3ccc(/C=C/C(=O)Nc4ccccc4N)c3)cc2)cn1", 1),
]

query: For O=C([C@@H](Cc1cccc(C(F)(F)F)c1)NS(=O)(=O)c1cc(F)c2c(c1)CCNC2)N1CCCC1 , which call appears in the assay record?
result: 0

query: Assay outcome for O=C(NCCS(=O)(=O)c1ccc(C(F)(F)F)cn1)c1ccc(Cl)cc1 : what was it?
result: 0

query: What classification did COc1ccccc1C(=O)Nc1cc2c(cc1N1CCNC[C@H]1C)n(C)c(=O)n2C end up with in this test?
result: 0

query: Which outcome was entered for the compound COC(=O)C1=C(C)NC(c2ncc(F)cc2F)=N[C@@H]1c1ccc(F)cc1Cl in this test?
result: 0
